meta.source: patent US20220162192A1

Target: Recombinant G2019S-LRRK2 protein (Homo sapiens, UniProt Q5S007, G2019S)
Sequence (Q5S007 whole entry G2019S): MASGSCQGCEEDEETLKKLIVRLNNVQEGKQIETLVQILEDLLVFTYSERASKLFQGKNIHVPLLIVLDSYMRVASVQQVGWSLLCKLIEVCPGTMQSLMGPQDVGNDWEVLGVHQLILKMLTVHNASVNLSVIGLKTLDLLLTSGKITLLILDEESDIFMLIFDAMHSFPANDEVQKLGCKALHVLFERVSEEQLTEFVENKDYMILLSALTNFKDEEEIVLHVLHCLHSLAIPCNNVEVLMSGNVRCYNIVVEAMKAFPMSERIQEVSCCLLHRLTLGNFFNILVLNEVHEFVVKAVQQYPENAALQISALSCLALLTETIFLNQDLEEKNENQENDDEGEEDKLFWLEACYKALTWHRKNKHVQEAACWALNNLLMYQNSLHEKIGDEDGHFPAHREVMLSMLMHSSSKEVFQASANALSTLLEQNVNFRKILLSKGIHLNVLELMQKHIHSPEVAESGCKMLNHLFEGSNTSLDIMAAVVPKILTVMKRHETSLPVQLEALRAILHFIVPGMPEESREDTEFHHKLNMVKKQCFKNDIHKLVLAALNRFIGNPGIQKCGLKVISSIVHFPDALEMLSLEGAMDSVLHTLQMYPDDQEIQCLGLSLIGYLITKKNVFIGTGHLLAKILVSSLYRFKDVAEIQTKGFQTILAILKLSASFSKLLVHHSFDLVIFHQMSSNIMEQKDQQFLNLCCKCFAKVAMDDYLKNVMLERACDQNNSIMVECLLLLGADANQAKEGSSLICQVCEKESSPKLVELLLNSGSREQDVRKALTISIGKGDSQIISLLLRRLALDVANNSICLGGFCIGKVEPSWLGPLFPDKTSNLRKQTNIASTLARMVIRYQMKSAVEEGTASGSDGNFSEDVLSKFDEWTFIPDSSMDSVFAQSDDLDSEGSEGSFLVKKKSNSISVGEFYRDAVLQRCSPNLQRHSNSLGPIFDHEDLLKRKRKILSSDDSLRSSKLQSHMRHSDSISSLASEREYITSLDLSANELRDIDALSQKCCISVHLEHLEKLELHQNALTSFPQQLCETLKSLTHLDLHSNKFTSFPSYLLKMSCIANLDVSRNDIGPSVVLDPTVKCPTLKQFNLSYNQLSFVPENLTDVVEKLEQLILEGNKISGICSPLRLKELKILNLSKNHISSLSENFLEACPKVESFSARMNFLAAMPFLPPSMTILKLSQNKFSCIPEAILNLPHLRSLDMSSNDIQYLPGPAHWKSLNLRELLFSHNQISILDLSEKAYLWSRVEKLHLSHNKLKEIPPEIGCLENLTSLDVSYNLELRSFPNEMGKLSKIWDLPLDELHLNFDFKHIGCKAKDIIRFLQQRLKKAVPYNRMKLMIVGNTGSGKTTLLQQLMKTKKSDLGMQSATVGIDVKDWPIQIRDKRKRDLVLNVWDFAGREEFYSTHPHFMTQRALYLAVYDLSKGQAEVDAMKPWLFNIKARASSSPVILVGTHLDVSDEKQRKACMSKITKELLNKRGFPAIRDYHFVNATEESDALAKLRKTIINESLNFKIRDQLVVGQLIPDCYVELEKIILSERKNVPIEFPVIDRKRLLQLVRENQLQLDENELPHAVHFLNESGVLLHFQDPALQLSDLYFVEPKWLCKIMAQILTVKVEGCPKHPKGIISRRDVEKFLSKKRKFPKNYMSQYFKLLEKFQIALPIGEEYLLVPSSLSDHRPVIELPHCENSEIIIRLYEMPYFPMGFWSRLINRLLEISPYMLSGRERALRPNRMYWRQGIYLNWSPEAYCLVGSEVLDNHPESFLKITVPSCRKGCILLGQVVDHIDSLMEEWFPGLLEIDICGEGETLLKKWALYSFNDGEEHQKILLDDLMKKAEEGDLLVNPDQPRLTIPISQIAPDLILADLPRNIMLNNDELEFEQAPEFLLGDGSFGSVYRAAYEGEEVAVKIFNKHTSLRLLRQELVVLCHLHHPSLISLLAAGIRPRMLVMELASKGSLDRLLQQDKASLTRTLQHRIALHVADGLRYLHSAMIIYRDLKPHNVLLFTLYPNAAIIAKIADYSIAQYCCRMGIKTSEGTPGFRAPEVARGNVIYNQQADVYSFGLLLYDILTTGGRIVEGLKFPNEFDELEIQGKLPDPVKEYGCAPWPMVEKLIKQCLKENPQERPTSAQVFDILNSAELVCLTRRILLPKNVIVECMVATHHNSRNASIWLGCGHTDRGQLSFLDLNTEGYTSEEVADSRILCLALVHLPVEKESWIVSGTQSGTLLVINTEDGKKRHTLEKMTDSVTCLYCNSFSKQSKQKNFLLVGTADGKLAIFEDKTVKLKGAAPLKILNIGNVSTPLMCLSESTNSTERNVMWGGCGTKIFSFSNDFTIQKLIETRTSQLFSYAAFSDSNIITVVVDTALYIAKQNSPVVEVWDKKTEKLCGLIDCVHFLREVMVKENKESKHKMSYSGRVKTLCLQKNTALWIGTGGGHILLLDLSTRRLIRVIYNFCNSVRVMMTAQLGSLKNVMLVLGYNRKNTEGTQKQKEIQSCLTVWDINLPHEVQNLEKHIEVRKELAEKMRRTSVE
Test: LanthaScreen Kinase Activity Assay (TR-FRET), G2019S-LRRK2
Conditions: class symbols; 25 μM ATP, 400 nM LRRKtide, 2.9 nM kinase, 60 min at room temperature
Protocol: LRRK2 kinase activity was measured using a LanthaScreen™ Kinase Activity Assay from ThermoFisher Scientific. Recombinant wild type or G2019S-LRRK2 protein (Life Technologies, PR8604B or PV4881, respectively), was incubated with a fluorescein-labeled peptide substrate called LRRKtide that is based upon ezrin/radixin/moesin (ERM) (Life Technologies, PV4901) in the presence of ATP and serially diluted compound. […]
pIC50: −log10 of the molar value.
Recorded pIC50, one value per entry.

Example entries begin here.
>>> result("O=C(Nc1ccc2[nH]nc(-c3ccoc3)c2c1)c1ccc2cnsc2c1")
"≥ 7.00"
>>> result("COc1ccc(C)c(-c2n[nH]c3ccc(NC(=O)c4c(F)cc5c(cnn5C)c4F)cc23)c1")
"6.00 to 7.00"
>>> result("O=C(Nc1ccc2[nH]nc(-c3ccoc3)c2c1)C1CCc2cncn2C1 (single isomer, unassigned) [Example 173b]")
"5.00 to 6.00"

Let's switch to this compound now.
## Input Look at this compound and give its reported pIC50. Cc1nc2ccc(C(=O)Nc3ccc4[nH]nc(-c5ccoc5)c4c3)cc2o1
## Output ≥ 7.00
